- TGT: PCSK9 (Homo sapiens)
- Sequence (Q8NBP7 153-692): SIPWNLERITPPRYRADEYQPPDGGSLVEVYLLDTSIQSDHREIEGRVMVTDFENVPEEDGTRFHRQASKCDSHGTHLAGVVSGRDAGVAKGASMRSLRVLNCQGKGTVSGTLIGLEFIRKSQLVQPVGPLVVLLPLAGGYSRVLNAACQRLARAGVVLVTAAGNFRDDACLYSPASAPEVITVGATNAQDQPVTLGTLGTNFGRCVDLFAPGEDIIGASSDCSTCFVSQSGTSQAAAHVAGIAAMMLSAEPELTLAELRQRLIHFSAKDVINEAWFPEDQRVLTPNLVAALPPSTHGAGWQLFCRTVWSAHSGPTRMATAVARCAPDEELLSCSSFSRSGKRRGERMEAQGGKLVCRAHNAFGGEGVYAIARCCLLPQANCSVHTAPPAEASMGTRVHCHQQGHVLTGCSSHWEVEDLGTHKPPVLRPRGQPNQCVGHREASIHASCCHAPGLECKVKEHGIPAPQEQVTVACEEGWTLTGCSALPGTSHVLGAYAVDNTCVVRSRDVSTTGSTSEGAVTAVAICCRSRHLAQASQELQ
- MEASUREMENT PROTOCOL: PCSK9 Alexa FRET Standard assay (displacement of AlexaFluor647 tagged cyclic peptide Reagent A)
- Type: binding
- TEST CONDITIONS: 0.5 nM PCSK9, 20 nM AF cyclic peptide Reagent A
Numbered stars: 1 amine (or outer) side, 2 acyl side, 3 side chain; on linkers, the order of the positions; unused ones are H or OH. Bridge positions count the residues as written; N and C are the ends. Square brackets hold non-standard residues; d marks the D form. Peptide text beside a SMILES is read from it. Trp(7-aza) = N[C@@H](Cc1c[nH]c2ncccc12)C(=O)O; mXylylene = c1cc(C[*:1])cc(C[*:2])c1; pXylylene = c1cc(C[*:2])ccc1C[*:1]; 2Pal = N[C@@H](Cc1ccccn1)C(=O)O; 4Pal = N[C@@H](Cc1ccncc1)C(=O)O; Aad = N[C@@H](CCCC(=O)O)C(=O)O; Tle = CC(C)(C)[C@H](N)C(=O)O; αMeV = CC(C)[C@](C)(N)C(=O)O; NMeA = CN[C@@H](C)C(=O)O; Nva = CCC[C@H](N)C(=O)O; Aib = CC(C)(N)C(=O)O; Mpa = O=C(O)CCS
OBSERVABLE: IC50

molecule="CCC[C@@H]1NC(=O)[C@H](Cc2ccc(O)cc2)NC(=O)[C@H](CCC(=O)O)NC(=O)[C@H](C)N(C)C(=O)[C@H](Cc2c[nH]c3ncccc23)NC(=O)[C@H]([C@@H](C)O)NC(=O)[C@H](Cc2c[nH]cn2)NC(=O)[C@H](Cc2ccc(O)cc2)NC(=O)[C@H](C(C)(C)C)NC(=O)CCSCc2cccc(c2)CSC[C@@H](C(N)=O)NC(=O)[C@H]([C@@H](C)O)NC1=O [Compound 207] ([Mpa][Tle]YHT[Trp(7-aza)][NMeA]EY[Nva]TC-NH2; linker 1-12 via mXylylene)" tgt="PCSK9 (Homo sapiens)" observable=IC50 value_observed="50 to 100 µM"

Q. // lookup IC50 | system=PCSK9 (Homo sapiens) | key= CCC[C@@H]1NC(=O)[C@H](Cc2c[nH]c3ncccc23)NC(=O)[C@H]([C@@H](C)O)NC(=O)[C@H](Cc2ccncc2)NC(=O)[C@H](Cc2ccc(O)cc2)NC(=O)[C@H](C(C)(C)C)NC(=O)CCSCc2cccc(c2)CSC[C@@H](C(N)=O)NC(=O)[C@H]([C@@H](C)O)NC(=O)[C@H](CCC)NC(=O)[C@H](Cc2ccc(O)cc2)NC(=O)[C@H](CCC(=O)O)NC1=O [Compound 112] ([Mpa][Tle]Y[4Pal]T[Trp(7-aza)][Nva]EY[Nva]TC-NH2; linker 1-12 via mXylylene)
A. 0.1 to 1 µM

Q. So what IC50 did CNC(=O)[C@H]1CSCc2cccc(c2)CSC[C@H](NC(C)=O)C(=O)N[C@@H](C(C)(C)C)C(=O)N[C@@H](Cc2ccc(O)cc2)C(=O)N2CCC[C@H]2C(=O)N[C@@H]([C@@H](C)O)C(=O)N[C@@H](Cc2c[nH]c3ncccc23)C(=O)NC(C)(C)C(=O)N[C@@H](C)C(=O)N[C@@H](Cc2ccc(O)cc2)C(=O)N[C@@](C)(C(C)C)C(=O)N[C@@H]([C@@H](C)O)C(=O)N1 [Compound 189] (Ac-C[Tle]YPT[Trp(7-aza)][Aib]AY[αMeV]T[dC]-NHMe; linker 1-12 via mXylylene) get with PCSK9 (Homo sapiens)?
A. 1 to 21 µM

Q. Provide value of IC50 for this record tested with PCSK9 (Homo sapiens): CCC[C@@H]1NC(=O)[C@H](Cc2ccncc2)NC(=O)[C@H]([C@@H](C)O)NC(=O)[C@H](Cc2c[nH]cn2)NC(=O)[C@H](Cc2ccc(O)cc2)NC(=O)[C@H](C(C)(C)C)NC(=O)CCSCc2cccc(c2)CSC[C@@H](C(N)=O)NC(=O)[C@H]([C@@H](C)O)NC(=O)[C@H](CCC)NC(=O)[C@H](Cc2ccc(O)cc2)NC(=O)[C@H](CCC(=O)O)NC1=O [Compound 270] ([Mpa][Tle]YHT[4Pal][Nva]EY[Nva]TC-NH2; linker 1-12 via mXylylene)
A. 50 to 100 µM

Q. Lab request: please report IC50 under test system PCSK9 (Homo sapiens) for CCC[C@@H]1NC(=O)[C@H](Cc2ccc(O)cc2)NC(=O)[C@H](CCC(=O)O)NC(=O)C(C)(C)NC(=O)[C@H](Cc2c[nH]c3ncccc23)NC(=O)[C@H]([C@@H](C)O)NC(=O)[C@H](Cc2c[nH]cn2)NC(=O)[C@H](Cc2ccc(O)cc2)NC(=O)[C@H](C(C)(C)C)NC(=O)CCSCc2cccc(c2)CSC[C@@H](C(N)=O)NC(=O)[C@H]([C@@H](C)O)NC1=O [Compound 268] ([Mpa][Tle]YHT[Trp(7-aza)][Aib]EY[Nva]TC-NH2; linker 1-12 via mXylylene)
A. 0.1 to 1 µM

Q. Please provide the recorded IC50 for CC(=O)N[C@H]1CSCc2cccc(c2)CSC[C@@H](C(N)=O)NC(=O)[C@H]([C@@H](C)O)NC(=O)C(C)(C)NC(=O)[C@H](Cc2ccc(O)cc2)NC(=O)[C@H](C)NC(=O)C(C)(C)NC(=O)[C@H](Cc2c[nH]c3ncccc23)NC(=O)[C@H]([C@@H](C)O)NC(=O)[C@@H]2CCCN2C(=O)[C@H](Cc2ccc(O)cc2)NC(=O)[C@H](C(C)(C)C)NC1=O [Compound 179] (Ac-C[Tle]YPT[Trp(7-aza)][Aib]AY[Aib]TC-NH2; linker 1-12 via mXylylene) , tested on PCSK9 (Homo sapiens).
A. 1 to 21 µM

Q. Give the reported IC50 for CCC[C@@H]1NC(=O)[C@H](Cc2c[nH]c3ncccc23)NC(=O)[C@H]([C@@H](C)O)NC(=O)[C@H](Cc2ccccn2)NC(=O)[C@H](Cc2ccc(O)cc2)NC(=O)[C@H](C(C)(C)C)NC(=O)CCSCc2cccc(c2)CSC[C@@H](C(N)=O)NC(=O)[C@H]([C@@H](C)O)NC(=O)[C@H](CCC)NC(=O)[C@H](Cc2ccc(O)cc2)NC(=O)[C@H](CCC(=O)O)NC1=O [Compound 114] ([Mpa][Tle]Y[2Pal]T[Trp(7-aza)][Nva]EY[Nva]TC-NH2; linker 1-12 via mXylylene) (system: PCSK9 (Homo sapiens)).
A. 21 to 50 µM

Q. Give recorded IC50 with PCSK9 (Homo sapiens) for the following molecule: CCC[C@@H]1NC(=O)[C@H](Cc2ccc(O)cc2)NC(=O)[C@H](CCC(=O)O)NC(=O)[C@H](CCC)NC(=O)[C@H]([C@@H](C)O)NC(=O)[C@H](Cc2c[nH]cn2)NC(=O)[C@H](Cc2ccc(O)cc2)NC(=O)[C@H](C(C)(C)C)NC(=O)CCSCc2ccc(cc2)CSC[C@@H](C(N)=O)NC(=O)[C@H]([C@@H](C)O)NC1=O [Compound 251] ([Mpa][Tle]YHT[Nva]EY[Nva]TC-NH2; linker 1-11 via pXylylene)
A. 50 to 100 µM

Q. API: value(readout= IC50, system= PCSK9 (Homo sapiens), query= CCC[C@@H]1NC(=O)[C@H](Cc2c[nH]c3ncccc23)NC(=O)[C@H]([C@@H](C)O)NC(=O)[C@H](Cc2c[nH]cn2)NC(=O)[C@H](Cc2ccc(O)cc2)NC(=O)[C@H](C(C)(C)C)NC(=O)CCSCc2cccc(c2)CSC[C@@H](C(N)=O)NC(=O)[C@H]([C@@H](C)O)NC(=O)[C@H](CCC)NC(=O)[C@H](Cc2ccc(O)cc2)NC(=O)[C@H](CCCC(=O)O)NC1=O [Compound 259] ([Mpa][Tle]YHT[Trp(7-aza)][Nva][Aad]Y[Nva]TC-NH2; linker 1-12 via mXylylene) )
A. 1 to 21 µM

Ref: patent US11814444B2
